- Tested on: Muscarinic acetylcholine receptor M1
- methodSummary: M1 muscarinic receptor agonists, primary screen, CHO-M1 cells, Fluo-4 calcium, agonist mode (AID 626)
- conditionDetails: Fluo-4 calcium fluorescence, at 10 µM, hits give high values
Screen size: about 64,000 compounds; about 1,900 (3%) were called active. The sample holds actives, similar compounds and a random draw of the others, so the mix is not that of the screen.
measureName: B-score
// no unit string in output, number only

Examples from the recorded data:
compound	testTarget	observedResult
Cc1nc(CNS(=O)(=O)c2cccnc2)cs1	Muscarinic acetylcholine receptor M1	0.163
Cc1ccc(S(=O)(=O)NCc2csc(C)n2)c(C)c1	Muscarinic acetylcholine receptor M1	-0.841
CN1C(C)(C)CC(NC(=O)CCC(=O)NC2CC(C)(C)N(C)C(C)(C)C2)CC1(C)C	Muscarinic acetylcholine receptor M1	-0.271
CCS(=O)(=O)N1CCCC(C(=O)NCCCN(C)Cc2ccccc2)C1 (configuration not stated)	Muscarinic acetylcholine receptor M1	0.0256
Nc1nnc(SCCN2C(=O)c3ccccc3S2(=O)=O)s1	Muscarinic acetylcholine receptor M1	1.12

Look up and report measured B-score for this entry: Cc1cc(C)nc(SCc2nnc(SCC(=O)Nc3ncc(C)s3)n2Cc2ccco2)n1 0.0432

Look up and report measured B-score for this entry: CC(=O)c1c(C)c[nH]c1C 0.323

Look up and report measured B-score for this entry: Cn1c(=O)[nH]c(=O)c2c1nc(NCCCn1ccnc1)n2Cc1cccc(Br)c1 0.757

Look up and report measured B-score for this entry: CCOC(=O)Nc1ccc2c(c1)N(C(=O)CN1CCN3CCCC3C1)c1ccccc1CC2 (configuration not stated) 0.0902

Look up and report measured B-score for this entry: CC1=C2C(=O)OC(c3ccoc3)C2(C)CCC1 (configuration not stated) -1.22

Look up and report measured B-score for this entry: COc1ccc(S(=O)(=O)N2CCCCC2)cc1Br -0.037

Look up and report measured B-score for this entry: CCOC(=O)c1ccc(Nc2cc(C)nc3nc(C)nn23)cc1 -0.0395

====

- Tested on: Muscarinic acetylcholine receptor M1
- methodSummary: M1 muscarinic receptor agonists, primary screen, CHO-M1 cells, Fluo-4 calcium, agonist mode (AID 626)
- conditionDetails: Fluo-4 calcium fluorescence, at 10 µM, hits give high values
Out of some 64,000 compounds screened, about 1,900 (3%) were called active. The entries come from a sample that favours actives as a whole.
measureName: B-score

Look up and report measured B-score for this entry: CCOC(=O)N1CCN(Cc2oc(CO)cc(=O)c2O)CC1 0.262 (inactive)

Look up and report measured B-score for this entry: CCSc1nc(C)nc2c1oc1ccccc12 0.362 (inactive)

Look up and report measured B-score for this entry: Cc1cccc2cc(CN(Cc3nnnn3Cc3ccccc3)C3CCCC3)c(=O)[nH]c12 0.299 (inactive)

Look up and report measured B-score for this entry: CCOC(=O)C1CCN(C(=O)c2oc3ccc(S(=O)(=O)N4CCCCCC4)cc3c2C)CC1 1.57 (inactive)

====

- System: Muscarinic acetylcholine receptor M1
- methodSummary: M1 muscarinic receptor agonists, primary screen, CHO-M1 cells, Fluo-4 calcium, agonist mode (AID 626)
- conditionDetails: Fluo-4 calcium fluorescence, at 10 µM, hits give high values
The whole screen tested about 64,000 compounds, of which about 1,900 (3%) were called active. The list comes from a sample in which actives are over-represented; it also holds close analogues and randomly drawn compounds.
measureName: B-score
// no unit string in output, number only

Look up and report measured B-score for this entry: CN1C(=O)c2ccc(NC(=O)c3c(F)c(F)c(F)c(F)c3F)cc2C1=O 4.34

Look up and report measured B-score for this entry: CCOC(=O)N1CCN(C(=O)CSc2nnc(-c3c[nH]c4ccccc34)n2CCOC)CC1 0.791

Look up and report measured B-score for this entry: CCN=C1SC(CC(=O)Nc2ccc(C)cc2)C(=O)N1CC (stereo not drawn) 5.15

Look up and report measured B-score for this entry: CCOC(=O)c1cc(-c2ccc(Cl)s2)nc2c1c(C)nn2C 0.0112
